This collection of values is drawn from the C3SDB collision cross section collection.

- Assay Conditions: [M+H]+; instrument: TW; calibrated with polyalanine and drug standards
Result Type: collision cross section (N2) (Å²)

# input compound: CC[C@H]1OC(=O)[C@H](C)[C@@H](O[C@H]2C[C@@](C)(OC)[C@@H](O)[C@H](C)O2)[C@H](C)[C@@H](O[C@@H]2O[C@H](C)C[C@H](N(C)C)[C@H]2O)[C@](C)(OC)C[C@@H](C)C(=O)[C@H](C)[C@@H](O)[C@]1(C)O [CLARITHROMYCIN] ; wanted: its collision cross section (N2)
264.2

a = CCCCCCCCNC(C)C(O)c1ccc(SC(C)C)cc1 (centres undefined) [SULOCTIDIL]
b = Cn1c(=O)c2[nH]cnc2n(C)c1=O [THEOPHYLLINE]
Consider entries a and b . Which has the numerically lower collision cross section (N2)? Pick one and reply with its label.
b
(b: 133.5 Å², a: 197.3 Å²)

A = Nc1ccc(O)c(C(=O)O)c1 [MESALAMINE]
B = NC(=NCCCCCCN=C(N)/N=C(\N)Nc1ccc(Cl)cc1)/N=C(\N)Nc1ccc(Cl)cc1 [CHLORHEXIDINE]
Consider entries A and B . Which has the numerically lower collision cross section (N2)? Pick one and reply with its label.
A
(A: 134.7 Å², B: 221.3 Å²)

###

- Assay Conditions: [M-H]-; instrument: DT; stepped-field
Result Type: collision cross section (N2) (Å²)

# input compound: O=c1[nH]c(=O)c2[nH]c(=O)[nH]c2[nH]1 [Uric acid] ; wanted: its collision cross section (N2)
126.93

# input compound: CC(C)C[C@H](N)C(=O)O [L-Leucine] ; wanted: its collision cross section (N2)
132.51

# input compound: CCCCCCCCCCCCCCCCCCCC(=O)O [Eicosanoic acid] ; wanted: its collision cross section (N2)
186.17

# input compound: CC/C=C\C/C=C\C/C=C\CCCCCCCC(=O)O [Linolenic acid] ; wanted: its collision cross section (N2)
174.88

# input compound: CCCCCCCCCCCCCCCCCCCCCCCC(=O)O [Lignoceric acid] ; wanted: its collision cross section (N2)
201.11

I = N[C@@H](CCC(=O)O)C(=O)O [L-Glutamate]
II = CCCCC/C=C\C/C=C\C/C=C\C/C=C\CCCC(=O)O [Arachidonic acid]
In the pair I and II , the larger recorded collision cross section (N2) belongs to which? Pick one and reply with its label.
II

###

- Assay Conditions: [M+H]+; instrument: DT; single field, calibrated with ESI Low Concentration Tuning Mix (Agilent)
Result Type: collision cross section (N2) (Å²)

# input molecule: CC(C)(COP(=O)(O)OP(=O)(O)OC[C@H]1O[C@@H](n2cnc3c(N)ncnc32)[C@H](O)[C@@H]1OP(=O)(O)O)[C@@H](O)C(=O)NCCC(=O)NCCSC(=O)C[C@@](C)(O)CC(=O)O [3-HYDROXY-3-METHYLGLUTARYL-COA] ; wanted: its collision cross section (N2)
265.4

# input molecule: NC(CCCC(=O)O)C(=O)O (configuration not stated) [AMINOADIPATE] ; wanted: its collision cross section (N2)
134.6

# input molecule: Cn1cnc(C[C@H](N)C(=O)O)c1 ; wanted: its collision cross section (N2)
133.4

# input molecule: Nc1nc(=O)c2ncn([C@@H]3O[C@@H]4COP(=O)(O)O[C@H]4[C@H]3O)c2[nH]1 ; wanted: its collision cross section (N2)
172.4

# input molecule: NC(CO)Cc1cnc[nH]1 (configuration not stated) ; wanted: its collision cross section (N2)
128.7

a = Nc1nc(=O)c2ncn([C@@H]3O[C@H](COP(=O)(O)OP(=O)(O)O[C@H]4O[C@H](CO)[C@@H](O)[C@H](O)[C@@H]4O)[C@@H](O)[C@H]3O)c2[nH]1 [GUANOSINE DIPHOSPHATE MANNOSE]
b = O=C(O)CCCC[C@@H]1SC[C@@H]2NC(=O)N[C@@H]21
Consider entries a and b . Which has the numerically lower collision cross section (N2)? Pick one and reply with its label.
b
